# ASSAYED TARGET: human apical sodium-dependent transporter (SLC10A2, ASBT) (Homo sapiens)
# Sequence (Q12908 1-348): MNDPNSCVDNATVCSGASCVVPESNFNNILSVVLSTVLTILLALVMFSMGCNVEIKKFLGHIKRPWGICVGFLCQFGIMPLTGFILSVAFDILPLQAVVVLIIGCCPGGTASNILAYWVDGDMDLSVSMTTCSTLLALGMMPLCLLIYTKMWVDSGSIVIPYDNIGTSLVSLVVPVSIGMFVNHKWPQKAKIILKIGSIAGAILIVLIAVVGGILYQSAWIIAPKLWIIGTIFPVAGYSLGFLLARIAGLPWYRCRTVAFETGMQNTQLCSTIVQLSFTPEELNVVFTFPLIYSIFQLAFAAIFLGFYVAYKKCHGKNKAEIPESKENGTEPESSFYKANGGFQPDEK
# METHOD NOTES: ASBT cis-inhibition of taurocholate uptake in ASBT-MDCK cells
# APPLIED CONDITIONS: read-out: percent taurocholate inhibited at the highest inhibitor concentration
ENDPOINT: inhibition at 10 µM (%)

Examples with their reported inhibition at 10 µM follow.
COc1ccc2c(c1)c(CC(=O)O)c(C)n2C(=O)c1ccc(Cl)cc1; 11
COC(=O)C1=C(C)NC(C)=C(C(=O)OC(C)C)C1c1cccc2nonc12 (stereo not drawn); 12.1
O=C(O)C[C@H](O)C[C@H](O)/C=C/c1c(C2CC2)nc2ccccc2c1-c1ccc(F)cc1; 14.4

I. CC(C)c1nc(N(C)S(C)(=O)=O)nc(-c2ccc(F)cc2)c1/C=C/[C@@H](O)C[C@@H](O)CC(=O)O
II. CC(C)OC(=O)CCC/C=C\C[C@@H]1[C@@H](CC[C@@H](O)CCc2ccccc2)[C@H](O)C[C@@H]1O
III. Cc1c(OCC(F)(F)F)ccnc1C[S+]([O-])c1nc2ccccc2[nH]1 (stereo not drawn)
Output the entries ranked by inhibition at 10 µM from maximum down to minimum. Show the ranking through the labels, in the order asked for.
II, I, III
(II: 34.3%, I: 11.7%, III: 5.99%)

* * *

# ASSAYED TARGET: human apical sodium-dependent transporter (SLC10A2, ASBT) (Homo sapiens)
# Sequence (Q12908 1-348): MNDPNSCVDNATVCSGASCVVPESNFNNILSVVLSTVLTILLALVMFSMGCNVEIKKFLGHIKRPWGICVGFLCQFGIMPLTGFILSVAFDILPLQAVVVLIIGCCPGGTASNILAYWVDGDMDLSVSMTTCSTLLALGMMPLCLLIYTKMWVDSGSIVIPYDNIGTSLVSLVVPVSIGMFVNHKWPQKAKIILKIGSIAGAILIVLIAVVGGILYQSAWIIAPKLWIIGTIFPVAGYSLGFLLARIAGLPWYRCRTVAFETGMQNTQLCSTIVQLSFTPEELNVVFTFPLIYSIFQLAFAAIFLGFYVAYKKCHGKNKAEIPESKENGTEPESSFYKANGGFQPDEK
# METHOD NOTES: ASBT cis-inhibition of taurocholate uptake in ASBT-MDCK cells
# APPLIED CONDITIONS: Ki, inhibitor concentration range 0-[…]; mean±S.E.
ENDPOINT: pKi
Lab note — pKi values are minus log10 of concentrations in M.

Input COC(=O)C1=C(C)NC(C)=C(C(=O)OC(C)C)C1c1cccc2nonc12 (stereo not shown) [Isradipine, isradipine] . Output pKi: 5.02
